# Maximum mean fluorescence intensity values compiled below
target: T1, human EGFRvIII protein on the cell surface (human, UniProt P00533 25-1210); assay: FACS on U87MG-EGFRvIII cells
T1 construct: whole, on cells; the cell line is named under assay; also called hEGFRvIII; U87MG-hEGFRvIII
# value in MFI; strip the unit string

Answered examples (3):
binder="Humanized antibody h63A10A7-25 (antibody, human IgG1, V domains shown, also called VH-g4/VL-g7) VH: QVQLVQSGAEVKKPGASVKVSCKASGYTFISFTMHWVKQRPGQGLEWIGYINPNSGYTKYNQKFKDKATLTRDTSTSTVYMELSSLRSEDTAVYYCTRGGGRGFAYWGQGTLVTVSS VL: DILMTQSPSSLSASVGDRVTITCHASQDINSNIGWYQQKPGKSFKALIYHGTNLEDGVPSRFSGSGSGADYTLTISSLQPEDFATYYCVQYAQFPFTFGQGTKLEIK" value=24700
binder="Humanized antibody h63A10A7-20 (antibody, human IgG1, V domains shown, also called VH-g7/VL-g4) VH: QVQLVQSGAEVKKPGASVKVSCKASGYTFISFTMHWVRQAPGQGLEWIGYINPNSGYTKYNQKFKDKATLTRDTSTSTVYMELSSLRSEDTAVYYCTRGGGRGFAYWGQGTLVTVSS VL: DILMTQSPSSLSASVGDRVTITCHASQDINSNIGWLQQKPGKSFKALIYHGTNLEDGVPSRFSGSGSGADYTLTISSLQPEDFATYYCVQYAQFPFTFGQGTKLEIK" value=22600
binder="Humanized antibody h63A10A7-21 (antibody, human IgG1, V domains shown, also called VH-g8/VL-g4) VH: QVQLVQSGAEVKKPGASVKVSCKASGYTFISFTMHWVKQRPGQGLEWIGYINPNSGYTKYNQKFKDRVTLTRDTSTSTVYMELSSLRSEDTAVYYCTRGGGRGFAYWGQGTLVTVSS VL: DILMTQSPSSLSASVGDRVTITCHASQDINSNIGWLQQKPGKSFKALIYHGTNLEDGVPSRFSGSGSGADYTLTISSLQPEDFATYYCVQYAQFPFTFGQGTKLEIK" value=23500

(Q) // Input: Humanized antibody h75G7C6-12 (antibody, human IgG1, V domains shown, also called VH-g1/VL-g3) VH: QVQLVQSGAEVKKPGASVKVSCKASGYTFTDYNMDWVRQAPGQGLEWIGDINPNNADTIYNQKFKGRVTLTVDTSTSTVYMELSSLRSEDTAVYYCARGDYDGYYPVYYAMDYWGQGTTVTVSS VL: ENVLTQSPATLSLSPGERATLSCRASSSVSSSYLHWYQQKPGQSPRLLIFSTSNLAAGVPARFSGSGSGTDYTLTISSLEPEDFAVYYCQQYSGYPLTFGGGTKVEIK . Output its Maximum mean fluorescence intensity only.
(A) 17800

(Q) // Input: Humanized antibody h63A10A7-23 (antibody, human IgG1, V domains shown, also called VH-g4/VL-g5) VH: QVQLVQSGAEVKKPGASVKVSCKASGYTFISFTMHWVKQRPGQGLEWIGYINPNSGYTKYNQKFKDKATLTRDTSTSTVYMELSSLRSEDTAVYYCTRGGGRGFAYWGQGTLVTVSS VL: DILMTQSPSSLSASVGDRVTITCHASQDINSNIGWLQQKPGKAPKALIYHGTNLEDGVPSRFSGSGSGADYTLTISSLQPEDFATYYCVQYAQFPFTFGQGTKLEIK . Output its Maximum mean fluorescence intensity only.
(A) 20200
